METHOD: Intrinsic clearance in human
Type: ADME, organism-based
EXPERIMENTAL SETUP: in vivo
MEASURED METRIC: CLint scaled (mL/min/kg)
Use mL/min/kg as the unit, but write only the number.

Below, 2 compounds whose answers are already recorded.
>  <MOL>
Cn1c(CO)c(-c2ccccc2)c2cc([N+](=O)[O-])ccc21

>  <CLint scaled, mL/min/kg>
157

$$$$
>  <MOL>
CCOC(=O)c1ccc(-c2nn(Cc3ccccc3)c3ccccc23)cc1

>  <CLint scaled, mL/min/kg>
75

$$$$

Pending compound:
Given item CCOC(=O)c1ccc(-c2cn(Cc3ccccc3)c3ccccc23)cc1 , the value recorded as its CLint scaled is 77
